# Tested on: KB
# procedure-text: Concentration required for inhibition of 50% human […] KB cell line proliferation after 72 hr of incubation
# Format: functional, cell-based
endpoint-label: pIC50
The quantity pIC50 is defined as the negative base-10 logarithm of the molar concentration.

Log: KB, compound CC(=O)O[C@@]12CO[C@@H]1C[C@H](O)[C@@]1(C)C(=O)[C@H](O)C3=C(C)[C@@H]4C[C@@](O)([C@@H](OC(=O)c5cccc(c5)C/C=C/CCCCC(=O)N[C@@H](c5ccccc5)[C@@H](O)C(=O)O4)C12)C3(C)C (stereo partly drawn) , pIC50 = 7.15

Log: KB, compound C=CCCCCC(=O)N[C@@H](c1ccccc1)[C@@H](O)C(=O)O[C@H]1C[C@@]2(O)[C@@H](OC(=O)c3ccc(CC=C)cc3)C3[C@](C)(C(=O)[C@H](O)C(=C1C)C2(C)C)[C@@H](O)C[C@H]1OC[C@@]31OC(C)=O (stereo partly drawn) , pIC50 = 7.40

Log: KB, compound CC(=O)O[C@@]12CO[C@@H]1C[C@H](O)[C@@]1(C)C(=O)[C@H](O)C3=C(C)[C@@H](OC(=O)[C@H](O)[C@@H](NC(=O)OC(C)(C)C)c4ccccc4)C[C@@](O)([C@@H](OC(=O)c4ccccc4)[C@H]21)C3(C)C , pIC50 = 9.52

Log: KB, compound CC(=O)O[C@@]12CO[C@@H]1C[C@H](O)[C@@]1(C)C(=O)[C@H](O)C3=C(C)[C@@H]4C[C@@](O)([C@@H](OC(=O)CCCC/C=C\CCCCC(=O)N[C@@H](c5ccccc5)[C@@H](O)C(=O)O4)C12)C3(C)C (stereo partly drawn) , pIC50 = 5.10

Log: KB, compound CC(=O)O[C@@]12CO[C@@H]1C[C@H](O)[C@@]1(C)C(=O)[C@H](O)C3=C(C)[C@@H]4C[C@@](O)([C@@H](OC(=O)c5cccc(c5)C/C=C\CCCCC(=O)N[C@@H](c5ccccc5)[C@@H](O)C(=O)O4)C12)C3(C)C (stereo partly drawn) , pIC50 = 6.70

Log: KB, compound C=CCCCCC(=O)N[C@@H](c1ccccc1)[C@@H](O)C(=O)O[C@H]1C[C@@]2(O)[C@@H](OC(=O)c3cccc(CC=C)c3)C3[C@](C)(C(=O)[C@H](O)C(=C1C)C2(C)C)[C@@H](O)C[C@H]1OC[C@@]31OC(C)=O (stereo partly drawn) , pIC50 = 8.00

Log: KB, compound CC(=O)O[C@@]12CO[C@@H]1C[C@H](O)[C@@]1(C)C(=O)[C@H](O)C3=C(C)[C@@H]4C[C@@](O)([C@@H](OC(=O)c5ccc(cc5)C/C=C\CCCCC(=O)N[C@@H](c5ccccc5)[C@@H](O)C(=O)O4)C12)C3(C)C (stereo partly drawn) , pIC50 = 6.55

Log: KB, compound CC(=O)O[C@@]12CO[C@@H]1C[C@H](O)[C@@]1(C)C(=O)[C@H](O)C3=C(C)[C@@H]4C[C@@](O)([C@@H](OC(=O)c5ccc(cc5)C/C=C/CCCC(=O)N[C@@H](c5ccccc5)[C@@H](O)C(=O)O4)C12)C3(C)C (stereo partly drawn) , pIC50 = 5.80

====

# Tested on: KB
# procedure-text: Concentration required for inhibition of 50% human […] KB cell line proliferation after 72 hr of incubation
# Type: functional, cell-based
Assign pIC50 to each entry below.
The quantity pIC50 is defined as the negative base-10 logarithm of the molar concentration.

Log: KB, molecule C=CCCCCC(=O)N[C@@H](c1ccccc1)[C@@H](O)C(=O)O[C@H]1C[C@@]2(O)[C@@H](OC(=O)c3ccccc3CC=C)C3[C@](C)(C(=O)[C@H](O)C(=C1C)C2(C)C)[C@@H](O)C[C@H]1OC[C@@]31OC(C)=O (some centres not stated) , pIC50 = 8.49

Log: KB, molecule CC(=O)O[C@@]12CO[C@@H]1C[C@H](O)[C@@]1(C)C(=O)[C@H](O)C3=C(C)[C@@H]4C[C@@](O)([C@@H](OC(=O)c5ccccc5C/C=C/CCCCC(=O)N[C@@H](c5ccccc5)[C@@H](O)C(=O)O4)C12)C3(C)C (some centres not stated) , pIC50 = 6.15

The origin of these recorded values is ChEMBL document CHEMBL1138846.
